Provide the reported pKd of each item.
# ASSAY SYSTEM: T1, soluble human CTLA-4 expressed with a C-terminal myc-myc-polyhistidine tag (human)
# T1 construct: soluble protein; also called hCTLA-4.mmh; hCTLA4.mmh
# T1 sequence (chain, as listed by the source limits assumed): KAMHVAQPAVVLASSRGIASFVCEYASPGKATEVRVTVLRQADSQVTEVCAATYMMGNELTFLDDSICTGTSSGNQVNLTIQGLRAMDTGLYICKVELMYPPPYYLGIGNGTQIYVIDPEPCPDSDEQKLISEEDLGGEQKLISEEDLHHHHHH
# ASSAY OVERVIEW: SPR, mAb capture, 25 C
Conceptually, pKd converts a concentration in mol/L into minus its log10.

Using the record for H1H19303P (antibody, human IgG1, kappa, V domains shown, also called REGN4659) VH: EVQLVESGGGLVQPGGSLRLSCAASGFTFSNYEMSWVRQAPGKGLEWVSSIRTSGTTKYYADSMKGRFTISRDNAKNSLYLQMNSLRAEDTAVYYCAGGGTFLHYWGQGTLVTVSS VL: DIQMTQSPSSVSASVGDRVTITCRASQGIASYLAWYQQKPGKAPKLLIYAASSLQTGVPSRFSGSGYGTDFTLTISSLQPEDFATYYCQQAKSFPMYTFGQGTKLEIKR , report its pKd.
7.79

Using the record for H1H20375N (antibody, human IgG1, V domains shown, here with human IgG1 Fc (H1H)) VH: QLQLQESGPGLVKPSETLSFTCTVSGGSISSNYYYWGWVRQSPGKGLEWIGSIYHTGNAYDNPSLKSRVTISVDTSKNQFSLNLNSVTAADTAIYYCARHHSSSSWWYFDVWGRGTLVIVSS VL: EIVLTQSPDTLSLSPGERATLSCRASQTVSNSHLAWYQQKPGQAPRLLIYGTSSRATGIPDRFSGSGSGTDFSLTIIRLEPDDFAVYFCQQHESSPPTFGQGAKLEIK , report its pKd.
7.18

Source: patent US20210040232A1
